Test system: HepG2
Experiment: GSK_TCMDC: Percent inhibition of human HepG2 cell line. Test compounds present at 10uM.
Format: functional
Label label 1 when Inhibition is at or above 20%; otherwise label label 0.

Solved cases (3 shown):
[
  {
    "Compound": "CCCCCCn1c(Sc2ccc(C#N)c([N+](=O)[O-])c2)nnc1-c1cccs1",
    "Answer Label": "label 1"
  },
  {
    "Compound": "O=C(O)C(F)(F)F.O=S(=O)(NCCN1CCCC1)c1ccc(-c2ccc(CNCc3ccc(F)cc3)cc2)cc1",
    "Answer Label": "label 1"
  },
  {
    "Compound": "O=C(Cc1cccc(Cl)c1)Nc1cccc(-c2c[nH]c3nc(Nc4cccc(O)c4)ncc23)c1.O=C(O)C(F)(F)F",
    "Answer Label": "label 1"
  }
]

Req: For this compound, is measured Inhibition 20% or higher? `Cc1ccc(N2C(N)=NC(N)=NC2(C)C)cc1Cl.Cl`
Resp: label 1

Req: For this compound, is measured Inhibition 20% or higher? `COc1ccc(CCN2CC[C@H](Nc3nc(-c4ccc(F)c(F)c4)nc4ccccc34)C2)cc1S(N)(=O)=O.Cl`
Resp: label 0

Req: For this compound, is measured Inhibition 20% or higher? `CCNc1cc(C(=O)N[C@@H](Cc2ccccc2Cl)[C@H](O)CNC2CCCCC2)cc(N2CCCCS2(=O)=O)c1.Cl`
Resp: label 0

Req: For this compound, is measured Inhibition 20% or higher? `O=C(O)C(F)(F)F.O=C(c1cccs1)N(Cc1cccc(-c2ccc(CNCCc3ccccc3)cc2)c1)C1CCN(Cc2ccccc2)CC1`
Resp: label 0

Req: For this compound, is measured Inhibition 20% or higher? `CCCCOc1ccc(/C=C/c2ccc(-c3c(C)[nH]c(C)c(Cl)c3=O)s2)cc1`
Resp: label 0

Req: For this compound, is measured Inhibition 20% or higher? `CN(CC(=O)Nc1ccc(F)c(F)c1F)c1ncnc2sc(-c3ccccc3)cc12`
Resp: label 0

Req: For this compound, is measured Inhibition 20% or higher? `O=C(/C=C/c1ccc(Cl)c(Cl)c1)NCCCCCN1CCCN(C(=S)Nc2ccc(Cl)cc2)CC1`
Resp: label 0

Req: For this compound, is measured Inhibition 20% or higher? `COc1ccc(CCN(C)CCCCNC(=O)c2ccc(NC(=O)c3ccc(Cl)cc3)cc2)c(OC)c1`
Resp: label 0

Req: For this compound, is measured Inhibition 20% or higher? `COc1cc(N(Cc2ccccc2C)S(=O)(=O)Cc2ccccc2[N+](=O)[O-])c(OC)cc1Cl`
Resp: label 0

Req: For this compound, is measured Inhibition 20% or higher? `Br.CN(CCON1C(=N)N=C(N)NC1(C)C)c1ccccc1`
Resp: label 1

Req: For this compound, is measured Inhibition 20% or higher? `CCn1c(Cc2ccccc2)nnc1Sc1ccc([N+](=O)[O-])c(C#N)c1`
Resp: label 0

Req: For this compound, is measured Inhibition 20% or higher? COc1ccc2nccc([C@@H](O)CN3CCC(NC(=O)C(c4cc5ccccc5o4)N4CCN(c5ccccc5OC)CC4)CC3)c2c1 (stereo partly specified)
Resp: label 0

Req: For this compound, is measured Inhibition 20% or higher? `O=C(Nc1ccc(Cl)cc1)c1ccc(CN2CCCN(CC3CCCCC3)CC2)cc1.O=C(O)C(F)(F)F`
Resp: label 1

Req: For this compound, is measured Inhibition 20% or higher? CN(c1ccc(NC(=O)c2cccc(F)c2)cc1)C1CCCN(Cc2cccc(O)c2)C1.O=C(O)C(F)(F)F (stereo unspecified)
Resp: label 0

Req: For this compound, is measured Inhibition 20% or higher? `COc1ccc2nccc(N3CCN(CCNCc4ccc5c(n4)NC(=O)CO5)CC3)c2c1.Cl`
Resp: label 0

All values here come from ChEMBL document CHEMBL1157539.
